B1: Far upstream element-binding protein 3, residues 75 to 150; numbered along this chain, Q96I24 (parent)
chain: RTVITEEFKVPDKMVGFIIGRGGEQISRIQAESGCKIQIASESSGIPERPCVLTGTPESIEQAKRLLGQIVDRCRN

variants of: B1; assay: abundance fitness (aPCA) (normalised: wild type 0, dead -1); higher = more abundant; growth selection in yeast, the domain comes from the species named; details: Homo sapiens
readout-name: abundance fitness

V71A : -0.117

Continue with the variant presented below.
Value lookup for abundance fitness; key = `P50N`
0.01

Entry source: the Human Domainome abundance scans (Beltran et al. 2025)
